These entries and their values trace back to the kinase profiling compilation of Christmann-Franck et al. (2016).

compounds and their reported residual activity
Biological target: MAPK12 (human)
Experiment: radiometric filter-binding kinase assay
Conditions: compound 10.0 µM

{"Smiles data": "O=c1c(O)c(-c2ccc(O)c(O)c2)oc2cc(O)c(O)c(O)c12", "residual activity [%]": 88}
{"Smiles data": "O=S(=O)(c1ccc(F)c2nonc12)N1CCN(c2ncc(C(F)(F)F)cc2Cl)CC1", "residual activity [%]": 72}
{"Smiles data": "NS(=O)(=O)OC[C@@H]1C[C@@H](n2ccc3c(N[C@H]4CCc5ccccc54)ncnc32)C[C@@H]1O", "residual activity [%]": 95}

====

compounds and their reported residual activity
Biological target: ERBB4 (human)
Assay: radiometric filter-binding kinase assay
Settings: compound 1.0 µM
Assay metric: residual activity (%)

{"Smiles data": "O=C(Nc1nc2cc(C(F)(F)F)cc(NC3CC3)n2n1)c1cccnc1", "Assay metric": "residual activity", "Display unit": "%", "Reported result": 88}
{"Smiles data": "O=C(O)c1cc(N=Nc2ccc(S(=O)(=O)Nc3ccccn3)cc2)ccc1O", "Assay metric": "residual activity", "Display unit": "%", "Reported result": 100}
{"Smiles data": "O=C(NCCCNc1nc(Nc2cccc(CN3CCOCC3)c2)ncc1C1CC1)C1CCC1", "Assay metric": "residual activity", "Display unit": "%", "Reported result": 95}
{"Smiles data": "O=C(Nc1ccccc1-c1cn2c(CN3CCNCC3)csc2n1)c1cnc2ccccc2n1", "Assay metric": "residual activity", "Display unit": "%", "Reported result": 80}
{"Smiles data": "CCNc1nc(Nc2cc(F)c(C(=O)N3CCOCC3)cc2OC)ncc1C(F)(F)F", "Assay metric": "residual activity", "Display unit": "%", "Reported result": 97}
{"Smiles data": "Cc1ccc(-c2ccc3c(ccc4sc5c(c43)NC[C@@H](C)NC5=O)n2)cn1", "Assay metric": "residual activity", "Display unit": "%", "Reported result": 105}
{"Smiles data": "Cc1nc(-c2ccc(OCC(C)C)c(C#N)c2)sc1C(=O)O", "Assay metric": "residual activity", "Display unit": "%", "Reported result": 102}
{"Smiles data": "COc1cc2ncn(-c3cc(OCc4ccccc4S(C)(=O)=O)c(C#N)s3)c2cc1OC", "Assay metric": "residual activity", "Display unit": "%", "Reported result": 78}
{"Smiles data": "CC(C)(C#N)c1ccc(N2C(=O)OCc3cnc4ccc(-c5cnc6ccccc6c5)cc4c32)cc1", "Assay metric": "residual activity", "Display unit": "%", "Reported result": 110}
{"Smiles data": "Cc1cccc(-c2nn(C(=S)Nc3ccccc3)cc2-c2ccnc3ccccc23)n1", "Assay metric": "residual activity", "Display unit": "%", "Reported result": 82}

====

Target: MAPK8 (human) (UniProt P45983)
Sequence (P45983 whole entry, looked up): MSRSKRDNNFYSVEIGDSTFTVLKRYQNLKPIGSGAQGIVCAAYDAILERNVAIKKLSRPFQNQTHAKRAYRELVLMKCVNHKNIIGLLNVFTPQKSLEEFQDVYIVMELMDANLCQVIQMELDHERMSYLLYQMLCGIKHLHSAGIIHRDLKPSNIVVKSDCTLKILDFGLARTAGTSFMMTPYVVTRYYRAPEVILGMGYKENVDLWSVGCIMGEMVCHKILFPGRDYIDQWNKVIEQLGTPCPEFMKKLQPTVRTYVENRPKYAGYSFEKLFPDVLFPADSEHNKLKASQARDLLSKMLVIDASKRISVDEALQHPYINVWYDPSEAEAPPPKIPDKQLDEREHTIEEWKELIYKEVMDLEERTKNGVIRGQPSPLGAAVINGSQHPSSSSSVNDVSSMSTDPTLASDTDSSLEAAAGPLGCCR
Assay: radiometric filter-binding kinase assay
Details: compound 10.0 µM

{"Molecule": "COc1ccc2c(c1)c1c3c(c4c5ccccc5n(C)c4c1n2CC(O)CN(C)C)C(=O)NC3=O (stereo not drawn)", "Test system": "MAPK8 (human) (UniProt P45983)", "Display unit": "%", "residual activity": 60}
{"Molecule": "CCCC(CCC)C(=O)O", "Test system": "MAPK8 (human) (UniProt P45983)", "Display unit": "%", "residual activity": 95}
{"Molecule": "O=c1c(O)c(-c2ccc(O)c(O)c2)oc2cc(O)c(O)c(O)c12", "Test system": "MAPK8 (human) (UniProt P45983)", "Display unit": "%", "residual activity": 93}
{"Molecule": "c1ccc2c(-c3cnn4cc(-c5ccc(N6CCNCC6)cc5)cnc34)ccnc2c1", "Test system": "MAPK8 (human) (UniProt P45983)", "Display unit": "%", "residual activity": 78}
{"Molecule": "O=C(O)c1cc(N=Nc2ccc(S(=O)(=O)Nc3ccccn3)cc2)ccc1O", "Test system": "MAPK8 (human) (UniProt P45983)", "Display unit": "%", "residual activity": 96}
{"Molecule": "O=C1Nc2nc(-c3c(O)cccc3OCC3CC3)cc(C3CCCNC3)c2CO1 (stereo not drawn)", "Test system": "MAPK8 (human) (UniProt P45983)", "Display unit": "%", "residual activity": 61}
{"Molecule": "CNc1nc(-c2ccc3c(N)n[nH]c3c2)cc(N2C[C@@H](C(=O)NC3CCCCC3)CC[C@H]2C)n1", "Test system": "MAPK8 (human) (UniProt P45983)", "Display unit": "%", "residual activity": 108}
{"Molecule": "Cc1cc(SCc2sc(-c3ccc(C(F)(F)F)cc3)nc2C)ccc1OCC(=O)O", "Test system": "MAPK8 (human) (UniProt P45983)", "Display unit": "%", "residual activity": 74}
{"Molecule": "NC1(c2ccc(-c3nc4ccn5c(=O)[nH]nc5c4cc3-c3ccccc3)cc2)CCC1", "Test system": "MAPK8 (human) (UniProt P45983)", "Display unit": "%", "residual activity": 87}
{"Molecule": "O=C(O)c1ccc(-c2c[nH]c3ncc(-c4ccccc4)cc23)cc1C1CCCC1", "Test system": "MAPK8 (human) (UniProt P45983)", "Display unit": "%", "residual activity": 39}
{"Molecule": "CCOC(=O)c1ccc(N2NC(=O)/C(=C/c3ccc([N+](=O)[O-])o3)C2=O)cc1", "Test system": "MAPK8 (human) (UniProt P45983)", "Display unit": "%", "residual activity": 117}
{"Molecule": "O=S(=O)(c1ccc(F)c2nonc12)N1CCN(c2ncc(C(F)(F)F)cc2Cl)CC1", "Test system": "MAPK8 (human) (UniProt P45983)", "Display unit": "%", "residual activity": 88}
{"Molecule": "CC(C)C[C@H](NC(=O)CNC(=O)c1cc(Cl)ccc1Cl)B1OC(=O)CC(CC(=O)O)(C(=O)O)O1 (stereo partly drawn)", "Test system": "MAPK8 (human) (UniProt P45983)", "Display unit": "%", "residual activity": 85}

====

Biological target: MAP2K6 (human)
Experiment: radiometric filter-binding kinase assay
Conditions: compound 0.1 µM

{"Smiles data": "COc1cc(O)c2c(c1)/C=C/C[C@H](O)[C@H](O)C(=O)/C=C\\C[C@H](C)OC2=O", "Display unit": "%", "residual activity": 12}
{"Smiles data": "Cc1cc(NC(=O)c2cccc(NC(=O)/C=C/CN(C)C)c2)ccc1Nc1nccc(-c2cccnc2)n1", "Display unit": "%", "residual activity": 100}
{"Smiles data": "CCn1c(-c2nonc2N)nc2cncc(CNC3CCNCC3)c21", "Display unit": "%", "residual activity": 89}
{"Smiles data": "C=CC(=O)N1CCC[C@@H](n2nc(-c3ccc(Oc4ccccc4)cc3)c3c(N)ncnc32)C1", "Display unit": "%", "residual activity": 82}

====

compounds and their reported residual activity
Biological target: MAP2K2 (human)
Test: radiometric filter-binding kinase assay
Details: compound 0.1 µM

{"Compound": "c1ccc2c(-c3cnn4cc(-c5ccc(N6CCNCC6)cc5)cnc34)ccnc2c1", "Test system": "MAP2K2 (human)", "Display unit": "%", "residual activity": 88}
{"Compound": "Cc1cc(NC(=O)c2cccc(NC(=O)/C=C/CN(C)C)c2)ccc1Nc1nccc(-c2cccnc2)n1", "Test system": "MAP2K2 (human)", "Display unit": "%", "residual activity": 98}
{"Compound": "NC1(c2ccc(-c3nc4ccn5c(=O)[nH]nc5c4cc3-c3ccccc3)cc2)CCC1", "Test system": "MAP2K2 (human)", "Display unit": "%", "residual activity": 103}
{"Compound": "Cc1ccc(Sc2cnc(Nc3cccc(Br)n3)s2)cc1C(=O)N1CCN(C(=O)CN)CC1", "Test system": "MAP2K2 (human)", "Display unit": "%", "residual activity": 86}
{"Compound": "O=C(Nc1nc2cc(C(F)(F)F)cc(NC3CC3)n2n1)c1cccnc1", "Test system": "MAP2K2 (human)", "Display unit": "%", "residual activity": 90}
{"Compound": "CCn1c(-c2nonc2N)nc2cncc(CNC3CCNCC3)c21", "Test system": "MAP2K2 (human)", "Display unit": "%", "residual activity": 98}
{"Compound": "O=C(NCCCNc1nc(Nc2cccc(CN3CCOCC3)c2)ncc1C1CC1)C1CCC1", "Test system": "MAP2K2 (human)", "Display unit": "%", "residual activity": 106}
{"Compound": "CN1CCN(CCOc2cc(OC3CCOCC3)c3c(Nc4c(Cl)ccc5c4OCO5)ncnc3c2)CC1", "Test system": "MAP2K2 (human)", "Display unit": "%", "residual activity": 107}
{"Compound": "CN(C)C/C=C/C(=O)Nc1cccc(C(=O)Nc2ccc(Nc3nccc(-c4cccnc4)n3)cc2)c1", "Test system": "MAP2K2 (human)", "Display unit": "%", "residual activity": 87}
{"Compound": "CC1=C(CO)C(=O)O[C@@H]([C@@H](C)[C@H]2CC[C@H]3[C@@H]4C[C@H]5O[C@]56[C@@H](O)C=CC(=O)[C@]6(C)C4CC[C@]23C)C1 (stereo not given in full)", "Test system": "MAP2K2 (human)", "Display unit": "%", "residual activity": 108}
{"Compound": "O=C(N[C@@H](COc1ccc2[nH]c(=O)[nH]c2c1)c1ccccc1)c1cccn(Cc2ccc(F)c(F)c2)c1=O", "Test system": "MAP2K2 (human)", "Display unit": "%", "residual activity": 121}
{"Compound": "COc1ccc(N(C(=O)Nc2c(C)cccc2C)c2cc(Nc3ccc(N4CCN(C)CC4)cc3)ncn2)c(OC)c1", "Test system": "MAP2K2 (human)", "Display unit": "%", "residual activity": 96}
{"Compound": "CCCCCc1ccc(/C=C/[C@H](O)[C@@H](CO)NC)cc1", "Test system": "MAP2K2 (human)", "Display unit": "%", "residual activity": 104}
{"Compound": "O=C(O)c1ccc(-c2c[nH]c3ncc(-c4ccccc4)cc23)cc1C1CCCC1", "Test system": "MAP2K2 (human)", "Display unit": "%", "residual activity": 93}
{"Compound": "COc1ccc(-n2ncc3cnc(Nc4cc(OC)c(OC)c(OCCCN5CCN(C)CC5)c4)nc32)cc1", "Test system": "MAP2K2 (human)", "Display unit": "%", "residual activity": 55}
